Sourced from patent US20230279105A1

# study.system: T1, Human TIM-3 Human Fc tagged protein (human, fluorescently labeled with HiLyte Fluor 555 (sites not given))
# T1 construct: Bought construct; also called TIM-3 protein tagged with human Fc; ACROBiosystems catalog no: TM3-H5258
# procedure.text: capture slide probed with labeled TIM-3-Fc;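 further: IgG from single CD138-enriched plasma cells, isolated from lymphocytes, immobilized on a derivatized glass slide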
measured.quantity: binding result

binder="SCT-Fa141 (antibody, V domains shown, murine IgG) VH: QVQLQQPGAELVRPGTSVNLSCKASGYTFTSYWMHWVKQRPGQGLEWLGVIDPSDSNTNYNQKFKGKATLTVDTSSSTAYMQLSSLTSEDSAVYYCSRNDYDGGYFDYWGQGTTLTVSS VL: DVVMTQTPLSLPVSLGDQASISCRSSQSLVHSNGNTYLHWYLQKPGQSPKLLIYTVSNRFSGVPDRFSGSGSGTDFTLKISRVEAEDLGIYFCSQSTHVPWTFGGGTKLEIK" measured_value=binds
binder="SCT-Fa092 (antibody, V domains shown, murine IgG) VH: QIQLVQSGPEMKKPGETVKISCKASGYTFRTYGMSWVKQAPGKGLEWMGWINTYSGEPTYADDFKGRFAFSLETSANTAYLQINNLKNEDTATFFCARAQHYFDWWGQGTTLTVSS VL: DIKMTQSPSSMYASLGERVTITCKASQDIDSYLNWFQQKPGKSPKTLIYRATRLVDGVPSRFSGSGSGQDYSLTISSLEYEDMGIYYCLQYDEFPYTFGGGTKLEIK" measured_value=binds
binder="SCT-Fa043 (antibody, V domains shown, murine IgG) VH: EVQLQQSGAELVRPGASVKLSCTASGFNIKDYYMHWVKQRTEQGLEWIGRIDPDNDEIKYAPKFQGKATLTADTSSNTASLQLSGLTSEDTAVYYCARSSPYYFDYWGQGTTLTVSS VL: DIQMNQSPSSLSASLGDTITITCHASQNINVWLSWYQQKPGNIPKLLIYKASNLHTGVPSRFSGSGSVTGFTLTISSLQPEDIATYYCQQGQNIPYTFGGGTQLEIK" measured_value=binds
